assay: Phase 1 clinical trial, observed steady-state PK in adults; settings: human, in vivo, po, 800 mg
property.measured: Cmax (ng/mL)
Kindly answer with a numeric value in ng/mL, unit omitted.

Task: Reported Cmax for `CCN(c1cc(-c2ccc(CN3CCOCC3)cc2)cc(C(=O)NCc2c(C)cc(C)[nH]c2=O)c1C)C1CCOCC1` : what is it?
Result: 818

###

assay: Phase 1 clinical trial, observed steady-state PK in adults; settings: human, in vivo, po, 1600 mg
property.measured: AUC(0-t) (ng·h/mL)
Kindly answer with a numeric value in ng·h/mL, unit omitted.

Task: Reported AUC(0-t) for CCN(c1cc(-c2ccc(CN3CCOCC3)cc2)cc(C(=O)NCc2c(C)cc(C)[nH]c2=O)c1C)C1CCOCC1 [tazemetostat] : what is it?
Result: 7880

###

test: Phase 1 clinical trial, observed steady-state PK in adults; conditions: human, in vivo, po, 800 mg
property.measured: AUC(0-t) (ng·h/mL)
Kindly answer with a numeric value in ng·h/mL, unit omitted.

Task: Reported AUC(0-t) for `CCN(c1cc(-c2ccc(CN3CCOCC3)cc2)cc(C(=O)NCc2c(C)cc(C)[nH]c2=O)c1C)C1CCOCC1` : what is it?
Result: 4630

###

assay: Phase 1 clinical trial, observed steady-state PK in adults; conditions: human, in vivo, po, 400 mg
property.measured: Cmax (ng/mL)
Kindly answer with a numeric value in ng/mL, unit omitted.

Task: Reported Cmax for `CCN(c1cc(-c2ccc(CN3CCOCC3)cc2)cc(C(=O)NCc2c(C)cc(C)[nH]c2=O)c1C)C1CCOCC1` : what is it?
Result: 313

###

test: Phase 1 clinical trial, observed steady-state PK in adults; conditions: human, in vivo, po, 200 mg
property.measured: AUC(0-t) (ng·h/mL)
Kindly answer with a numeric value in ng·h/mL, unit omitted.

Task: Reported AUC(0-t) for CCN(c1cc(-c2ccc(CN3CCOCC3)cc2)cc(C(=O)NCc2c(C)cc(C)[nH]c2=O)c1C)C1CCOCC1 [tazemetostat] : what is it?
Result: 1010

###

assay: Phase 1 clinical trial, observed steady-state PK in adults; conditions: human, in vivo, po, 100 mg
property.measured: AUC(0-t)
State the value with its unit after it.

Task: Reported AUC(0-t) for CCN(c1cc(-c2ccc(CN3CCOCC3)cc2)cc(C(=O)NCc2c(C)cc(C)[nH]c2=O)c1C)C1CCOCC1 [tazemetostat] : what is it?
Result: 348 ng·h/mL

###

experiment: Phase 1 clinical trial, observed steady-state PK in adults; settings: human, in vivo, po, 1600 mg
property.measured: Cmax (ng/mL)
Kindly answer with a numeric value in ng/mL, unit omitted.

Task: Reported Cmax for `CCN(c1cc(-c2ccc(CN3CCOCC3)cc2)cc(C(=O)NCc2c(C)cc(C)[nH]c2=O)c1C)C1CCOCC1` : what is it?
Result: 1480

###

assay: Phase 1 clinical trial, observed steady-state PK in adults; details: human, in vivo, po, 100 mg
property.measured: Cmax (ng/mL)
Kindly answer with a numeric value in ng/mL, unit omitted.

Task: Reported Cmax for `CCN(c1cc(-c2ccc(CN3CCOCC3)cc2)cc(C(=O)NCc2c(C)cc(C)[nH]c2=O)c1C)C1CCOCC1` : what is it?
Result: 99
